# TGT: T1, TTD–PHD of UHRF1 (residues 134–366) (human, UniProt Q96T88 134-366)
# T1 chain: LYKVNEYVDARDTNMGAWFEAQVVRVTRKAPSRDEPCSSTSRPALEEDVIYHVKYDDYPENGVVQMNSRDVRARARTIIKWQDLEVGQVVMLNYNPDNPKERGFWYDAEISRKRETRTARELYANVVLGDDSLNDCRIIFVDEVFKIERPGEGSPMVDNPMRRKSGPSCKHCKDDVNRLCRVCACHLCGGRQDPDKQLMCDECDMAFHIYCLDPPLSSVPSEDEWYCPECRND
# ASSAY METHOD TEXT: ITC; in presence of Spacer (TTD-PHD/Spacer 1:2)
OBSERVABLE: pKd
Give bare numbers, as −log10 of the molar value.

input: Suppose we examine the binder ARTKQTARKSTGGKAPR (trimethyl-lysine at K9) [H3K9me3 peptide (1–17)] ; what pKd value has been reported?
output: 5.79

Hey, just so you know, these numbers are from paper PMC4822050.
